System: biotinyl-Leu-oxazolone
Experiment: self-aminoacylation, catalytic enhancement (BLO) (fold over background); higher = more active; k-Seq, kA / k0A0; sequences stand for … in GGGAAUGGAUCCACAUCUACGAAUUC…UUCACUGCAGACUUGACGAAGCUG
This sample holds only a part of the variants without activity.
Parameter Measured: self-aminoacylation

>>> data_value("ACUCACCAAGGUCAUCGGGUG [Fam2.2 aminoacylation ribozyme variant]")
7.13
>>> data_value("AUUAACCCGGUCAUCGAGUGA [Fam2.1 aminoacylation ribozyme variant]")
7.87
>>> data_value("AAGGUUGCUAAUAGUCUCAAG [Fam3.1 aminoacylation ribozyme variant]")
0.944
>>> data_value("CUACUUAAAACCAUCGGUCUG [Fam1A.1 aminoacylation ribozyme variant]")
0.846
>>> data_value("AUUCACCUAGGUCAUCGUGUU [Fam2.2 aminoacylation ribozyme variant]")
0.905
>>> data_value("GUUUCCCUGGUCAUCGAGUGA [Fam2.1 aminoacylation ribozyme variant]")
14.8
>>> data_value("AUUCUCCUAGGUCAACGGGUG [Fam2.2 aminoacylation ribozyme variant]")
8.2
>>> data_value("CCAGACUUCAAGCAAUCAGUC [Fam1B.1 aminoacylation ribozyme variant]")
1.03
>>> data_value("CUACGUCACACAAUCGGUCUG [Fam1A.1 aminoacylation ribozyme variant]")
0.98
>>> data_value("CCACAGUUCAUGCAAUCGGUC [Fam1B.1 aminoacylation ribozyme variant]")
1.16
>>> data_value("CCACACCUCAACCAAUCGGUC [Fam1B.1 aminoacylation ribozyme variant]")
1.28
>>> data_value("CCACAGUUCAAGCAAUCGCUC [Fam1B.1 aminoacylation ribozyme variant]")
2.43
>>> data_value("CUACUUCACACAAUCGUUCUG [Fam1A.1 aminoacylation ribozyme variant]")
0.484
>>> data_value("AGUACCCUGGUCAUGGAGUGA [Fam2.1 aminoacylation ribozyme variant]")
3.1
>>> data_value("AUUGCCCUGGUCAUCGAGUGU [Fam2.1 aminoacylation ribozyme variant]")
62.2
>>> data_value("AUUCACCUAGGUGAUCGGGUG [Fam2.2 aminoacylation ribozyme variant]")
3.27
>>> data_value("AUGUUUGCUAAUUGUCGCAAG [Fam3.1 aminoacylation ribozyme variant]")
1.64
>>> data_value("AUUACCCUGGACACCGAGUGA [Fam2.1 aminoacylation ribozyme variant]")
3.5
>>> data_value("CUACUUCAAACAAUCGAGCUG [Fam1A.1 aminoacylation ribozyme variant]")
0.481
>>> data_value("AUUCACCUACGUCAACGGGUG [Fam2.2 aminoacylation ribozyme variant]")
3.09
>>> data_value("CUACUUAAAACAAUAGGUCUG [Fam1A.1 aminoacylation ribozyme variant]")
0.893
>>> data_value("AAGUUUGCGAAUGGUCGCAAG [Fam3.1 aminoacylation ribozyme variant]")
0.728
>>> data_value("AUUCUGCUAGGUCAUCGGGUG [Fam2.2 aminoacylation ribozyme variant]")
12
>>> data_value("CCACACUUCAAGCAAACGGUG [Fam1B.1 aminoacylation ribozyme variant]")
5.1
>>> data_value("AUGACCCUGGUCAACGAGUGA [Fam2.1 aminoacylation ribozyme variant]")
6.02
>>> data_value("AUUACCCUUAUCAUCGAGUGA [Fam2.1 aminoacylation ribozyme variant]")
13.2
>>> data_value("AAGUUUCUUAAUAGUCGCAAG [Fam3.1 aminoacylation ribozyme variant]")
1.92
>>> data_value("CUACUUCAAGCAAUCGGGCUG [Fam1A.1 aminoacylation ribozyme variant]")
2.58
>>> data_value("AUUCACCUACGUCAUCGGGCG [Fam2.2 aminoacylation ribozyme variant]")
3.26
>>> data_value("CCACACGUCAAGAAAUCGGUC [Fam1B.1 aminoacylation ribozyme variant]")
1.28
>>> data_value("AUUCCCCUAGGUCAUCGGGCG [Fam2.2 aminoacylation ribozyme variant]")
13.5
>>> data_value("AAGUUUCCUAAUCGUCGCAAG [Fam3.1 aminoacylation ribozyme variant]")
0.896
>>> data_value("AUUCACCUAGGUCAACGGUUG [Fam2.2 aminoacylation ribozyme variant]")
0.71
>>> data_value("AUUACCCUGGGCAACGAGUGA [Fam2.1 aminoacylation ribozyme variant]")
10.3
>>> data_value("CUUCUUCAAACAAUCGGUAUG [Fam1A.1 aminoacylation ribozyme variant]")
0.779

---

Catalogue of sequences with associated self-aminoacylation
Test system: biotinyl-Ile-oxazolone
Test: self-aminoacylation, catalytic enhancement (BIO) (fold over background); higher = more active; k-Seq, kA / k0A0; sequences stand for … in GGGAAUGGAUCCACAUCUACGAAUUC…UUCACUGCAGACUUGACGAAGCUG
Variants at the floor of the assay were thinned out.
Parameter Measured: self-aminoacylation

>>> data_value("AAGUUUCCGAAUAGUCGCAAG [Fam3.1 aminoacylation ribozyme variant]")
2.01
>>> data_value("AUGACUCUGGUCAUCGAGUGA [Fam2.1 aminoacylation ribozyme variant]")
2.62
>>> data_value("AUUCACCAAGGUCAUCGGGUA [Fam2.2 aminoacylation ribozyme variant]")
3.77
>>> data_value("AAGUCUUCUAAUAGUCGCAAG [Fam3.1 aminoacylation ribozyme variant]")
2.06
>>> data_value("AACUUUGGUAAUAGUCGCAAG [Fam3.1 aminoacylation ribozyme variant]")
2.58

---

System: biotinyl-Leu-oxazolone
Test: self-aminoacylation, catalytic enhancement (BLO) (fold over background); higher = more active; k-Seq, kA / k0A0; sequences stand for … in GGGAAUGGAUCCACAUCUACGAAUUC…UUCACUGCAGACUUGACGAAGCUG
Variants at the floor of the assay were thinned out.
Label Met for high-side self-aminoacylation (at or above 3) and Not met for low-side self-aminoacylation (below it).

>>> assigned_category("CUAAUUCAAACAAUCGAUCUG [Fam1A.1 aminoacylation ribozyme variant]")
"Not met"
>>> assigned_category("AAGUUUGCUAAUAGACGCAAG [Fam3.1 aminoacylation ribozyme variant]")
"Not met"
>>> assigned_category("CCUCACUUCAAGCAAUCGCUC [Fam1B.1 aminoacylation ribozyme variant]")
"Not met"
>>> assigned_category("AUUUCCCUGGUCAUCGAGUGC [Fam2.1 aminoacylation ribozyme variant]")
"Not met"
>>> assigned_category("CUACUUCGAACAAUCGUUCUG [Fam1A.1 aminoacylation ribozyme variant]")
"Not met"
>>> assigned_category("AUUCACCAAGGUCAUCGGCUG [Fam2.2 aminoacylation ribozyme variant]")
"Not met"
>>> assigned_category("AAGUUUGCUAAUAGUCGCAUU [Fam3.1 aminoacylation ribozyme variant]")
"Not met"
>>> assigned_category("AUUACUCUGGUCAUCGAAUGA [Fam2.1 aminoacylation ribozyme variant]")
"Not met"
>>> assigned_category("CUUCACCAAGGUCAUCGGGUG [Fam2.2 aminoacylation ribozyme variant]")
"Met"
>>> assigned_category("AUUACCAUGGUCGUCGAGUGA [Fam2.1 aminoacylation ribozyme variant]")
"Not met"
>>> assigned_category("AUUACUCGGGUCAUCGAGUGA [Fam2.1 aminoacylation ribozyme variant]")
"Met"
>>> assigned_category("AUUCACGUACGUCAUCGGGUG [Fam2.2 aminoacylation ribozyme variant]")
"Met"
>>> assigned_category("AUUAACCUAGGUCGUCGGGUG [Fam2.2 aminoacylation ribozyme variant]")
"Not met"
>>> assigned_category("AUUCAACUAGGUCAGCGGGUG [Fam2.2 aminoacylation ribozyme variant]")
"Met"
>>> assigned_category("AUUACCCUGGUCCUCAAGUGA [Fam2.1 aminoacylation ribozyme variant]")
"Not met"
>>> assigned_category("GUUCACCUAGGUCAUCGGGUA [Fam2.2 aminoacylation ribozyme variant]")
"Met"
>>> assigned_category("CCCCACUUCAAGCAAUCGGUC [Fam1B.1 aminoacylation ribozyme variant]")
"Not met"
>>> assigned_category("CUACUUCAAACAAAAGGUCUG [Fam1A.1 aminoacylation ribozyme variant]")
"Not met"

---

Catalogue of sequences with associated self-aminoacylation
System: biotinyl-Trp-oxazolone
Assay: self-aminoacylation, catalytic enhancement (BWO) (fold over background); higher = more active; k-Seq, kA / k0A0; sequences stand for … in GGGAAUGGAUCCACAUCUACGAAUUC…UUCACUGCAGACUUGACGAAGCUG
Variants at the floor of the assay were thinned out.
Parameter Measured: self-aminoacylation

>>> data_value("AUUCACCAAGGUCAUCGCGUG [Fam2.2 aminoacylation ribozyme variant]")
12.6
>>> data_value("CUACUUCAAACAAUCGCUCAG [Fam1A.1 aminoacylation ribozyme variant]")
0.671
>>> data_value("UUACAUCAAACAAUCGGUCUG [Fam1A.1 aminoacylation ribozyme variant]")
2.51
>>> data_value("AAGUUUGCAAAUAGUCGAAAG [Fam3.1 aminoacylation ribozyme variant]")
1.04
>>> data_value("AUUACCCUGGUAACCGAGUGA [Fam2.1 aminoacylation ribozyme variant]")
14.2
>>> data_value("CUACUACAUACAAUCGGUCUG [Fam1A.1 aminoacylation ribozyme variant]")
0.58
>>> data_value("AAUUUUGCGAAUAGUCGCAAG [Fam3.1 aminoacylation ribozyme variant]")
2
>>> data_value("AUUACCCUGGUCAACGAGUGA [Fam2.1 aminoacylation ribozyme variant]")
7.31
>>> data_value("CUACAUCAAACAAUCUGUCUG [Fam1A.1 aminoacylation ribozyme variant]")
0.497
>>> data_value("AUUACACUGGUCAUCGAGUUA [Fam2.1 aminoacylation ribozyme variant]")
1.38
>>> data_value("AUUCACAUCGGUCAUCGGGUG [Fam2.2 aminoacylation ribozyme variant]")
5.93
>>> data_value("AUUCACCUAGGCCAACGGGUG [Fam2.2 aminoacylation ribozyme variant]")
3.02
>>> data_value("GCACACUUCACGCAAUCGGUC [Fam1B.1 aminoacylation ribozyme variant]")
3.02
>>> data_value("GUUCACCUAGGUCCUCGGGUG [Fam2.2 aminoacylation ribozyme variant]")
5.27
>>> data_value("CCACACUUCAAGCCAUGGGUC [Fam1B.1 aminoacylation ribozyme variant]")
0.675
>>> data_value("GUUACCCUCGUCAUCGAGUGA [Fam2.1 aminoacylation ribozyme variant]")
4.33
>>> data_value("CUACUUCAAACAAUCGGCCAG [Fam1A.1 aminoacylation ribozyme variant]")
0.954
>>> data_value("UUACUUCAAACAAUCGGUAUG [Fam1A.1 aminoacylation ribozyme variant]")
7.05

Where do these numbers come from? They come from the supplement of paper PMC9233669.
